- Test system: Monochoria vaginalis, Presl.
- measurementProtocol: Preemergence weed control under flooded paddy conditions, MOOVA (Monochoria); note: meaning of each grade not given here
- Assay type: in vivo
- conditionDescription: 0.0313 kg/ha; preemergence, flooded paddy; rated three to four weeks after treatment
readoutName: herbicidal effect rating, MOOVA
Keep the answer to the number alone.

Tell me reported herbicidal effect rating, MOOVA for Cc1ccc(O)c(-c2noc3ccc(-n4c(=O)cc(C(F)(F)F)n(C)c4=O)c(Cl)c23)c1 [Example 41] , tested with Monochoria vaginalis, Presl..
0.0

Then this compound: COc1ccc(C)cc1-c1nsc2ccc(-n3c(=O)cc(C(F)(F)F)n(C)c3=O)cc12 [Example 1]
9.0

Then this compound: COc1noc2ccc(-n3c(=O)cc(C(F)(F)F)n(C)c3=O)cc12 [Example 42]
0.0

Then this compound: COC(=O)COc1c(C)cc(C)cc1-c1nsc2ccc(-n3c(=O)cc(C(F)(F)F)n(C)c3=O)cc12 [Example 26]
9.0

Then this compound: Cn1c(C(F)(F)F)cc(=O)n(-c2ccc3onc(-c4ccccc4)c3c2)c1=O [Example 25]
9.0

Then this compound: CCc1ccc(OC(C)C(=O)OC)c(-c2nsc3ccc(-n4c(=O)cc(C(F)(F)F)n(C)c4=O)cc23)c1 (centres unmarked) [Example 28]
8.0

Then this compound: COC(=O)C(C)Oc1ccc(C(C)C)cc1-c1nsc2ccc(-n3c(=O)cc(C(F)(F)F)n(C)c3=O)cc12 (centres unmarked) [Example 30]
9.0

Then this compound: Cc1ccc(OCC(=O)OCC#Cc2ccccc2)c(-c2nsc3ccc(-n4c(=O)cc(C(F)(F)F)n(C)c4=O)cc23)c1 [Example 73]
9.0

---

- Test system: Cyperus iria
- measurementProtocol: Preemergence weed control under flooded paddy conditions, CYPIR (Rice Flatsedge)
- Type: in vivo
- conditionDescription: Rate 0.0320 kg/ha; preemergence, flooded paddy; rated three to four weeks after treatment
Field: CYPIR herbicidal effect rating. Provide a value for each of the molecules that follow.
Keep the answer to the number alone.

Bench note: what CYPIR herbicidal effect rating did Cc1ccc(OCC(=O)NS(=O)(=O)c2sc(C)nc2C)c(-c2nsc3ccc(-n4c(=O)cc(C(F)(F)F)n(C)c4=O)cc23)c1 show?
0.0

Then this molecule: CCOc1ccc2sc(S(=O)(=O)NC(=O)COc3ccc(C)cc3-c3nsc4ccc(-n5c(=O)cc(C(F)(F)F)n(C)c5=O)cc34)nc2c1
0.0

Then this molecule: Cn1c(C(F)(F)F)cc(=O)n(-c2ccc3snc(-c4ccc(OCC(=O)O)cc4)c3c2)c1=O
4.0

---

- Tested on: Sagittaria pygmaea, L.
- measurementProtocol: Preemergence weed control under flooded paddy conditions, SAGPY (Arrowhead (Pygmaea)); note: meaning of each grade not given here
- Format: in vivo
- conditionDescription: Rate 0.0320 kg/ha; preemergence, flooded paddy; rated three to four weeks after treatment
readoutName: herbicidal effect rating, SAGPY

Bench note: what herbicidal effect rating, SAGPY did Cn1c(C(F)(F)F)cc(=O)n(-c2ccc3snc(C(C)(C)C(=O)OCc4ccccc4)c3c2)c1=O show?
7.0

Then this compound: Cn1c(C(F)(F)F)cc(=O)n(-c2ccc3snc(COC(=O)Cc4ccc(Cl)cc4Cl)c3c2)c1=O
0.0

Then this compound: C#CCC(c1nsc2ccc(-n3c(=O)cc(C(F)(F)F)n(C)c3=O)cc12)S(C)(=O)=O (stereo not drawn)
0.0

Then this compound: Cc1nsc2cc(F)c(-n3c(=O)cc(C(F)(F)F)n(C)c3=O)cc12
7.0

Then this compound: Cn1c(C(F)(F)F)cc(=O)n(-c2ccc3snc(COS(C)(=O)=O)c3c2)c1=O
3.0

Then this compound: Cn1c(C(F)(F)F)cc(=O)n(-c2ccc3snc(C(C#N)=Cc4ccco4)c3c2)c1=O
2.0

Then this compound: Cn1c(C(F)(F)F)cc(=O)n(-c2ccc3snc(C(C#N)=Cc4ccc[nH]4)c3c2)c1=O
0.0

Then this compound: C=CS(=O)(=O)NC(=O)C(C)Oc1ccc(C)cc1-c1nsc2ccc(-n3c(=O)cc(C(F)(F)F)n(C)c3=O)cc12 (stereo not drawn)
0.0

Then this compound: Cn1c(C(F)(F)F)cc(=O)n(-c2ccc3snc(COC(=O)Cc4ccccc4Cl)c3c2)c1=O
0.0

Then this compound: CCS(=O)(=O)NC(=O)c1nsc2ccc(-n3c(=O)cc(C(F)(F)F)n(C)c3=O)cc12
3.0

Then this compound: CCCCCCCCCCCCS(=O)(=O)NC(=O)c1nsc2ccc(-n3c(=O)cc(C(F)(F)F)n(C)c3=O)cc12
5.0

Then this compound: CC(C)S(=O)(=O)NC(=O)c1nsc2ccc(-n3c(=O)cc(C(F)(F)F)n(C)c3=O)cc12
9.0
